- systemTested: Nuclear receptor subfamily 1 group I member 2 (Homo sapiens)
- methodNotes: ATG_PXR_TRANS: Attagene TRANS-FACTORIAL HepG2 Assay for human Pregnane X Receptor (PXR) (AID 2283008)
Records with an inconclusive call do not appear. The source made the active and inactive calls. Rule for the calls: active = hit-call score of the fitted dose curve at least 0.9, where 1 is the maximum; inconclusive = response in the unintended direction; inactive = score below 0.9.
Form entry, call: pick from active, inactive

As a guide, the following entries are already answered.
molecule: O=C(O)CCCCCCCCCCC(=O)O
discreteLabel: inactive
--
molecule: Cc1ncc([N+](=O)[O-])n1C
discreteLabel: inactive

Query: Each molecule tested received a call. Report the one for `CN(C)c1ccc(O)c2c1C[C@H]1C[C@H]3[C@H](N(C)C)C(=O)C(C(N)=O)=C(O)[C@@]3(O)C(=O)C1=C2O` .
Response: inactive

Query: Each molecule tested received a call. Report the one for `C=C[Si](OCC)(OCC)OCC` .
Response: active

Query: Each molecule tested received a call. Report the one for `Cc1ccc(C=O)cc1` .
Response: inactive

Query: Each molecule tested received a call. Report the one for `Nc1cccc(S(=O)(=O)c2cccc(N)c2)c1` .
Response: inactive

Query: Each molecule tested received a call. Report the one for `NCCOCCO` .
Response: inactive

Query: Each molecule tested received a call. Report the one for OC1C(O)C(O)C(O)C(O)C1O (stereo not drawn) .
Response: inactive

====

- methodNotes: ATG_M_32_CIS: Attagene CIS-FACTORIAL HepG2 Assay for M32 Transcription Factor (Internal Marker) (AID 2282949);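 note: background control marker of the multiplexed CIS panel rather than a real target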
- conditions: HepG2 Attagene cis-factorial M32 reporter, mRNA; actives raise or lower the signal
The source made the active and inactive calls. The calls were made as follows: active = hit-call score of the fitted dose curve at least 0.9, where 1 is the maximum; inactive = score below 0.9.
measuredAttribute: outcome

// known answers, use as guide
compound: CC(C)=CCCC(C)=CCCC(C)=CCO
outcome: inactive
--
compound: CC(C)Oc1ccccc1O
outcome: inactive
--
compound: N#Cc1nc(Cl)c(Cl)c(Cl)c1Cl
outcome: inactive
--
compound: C=C[Si](OCC)(OCC)OCC
outcome: inactive
--
compound: Cc1cc(C2(c3cc(C)c(O)cc3C)OS(=O)(=O)c3ccccc32)c(C)cc1O
outcome: inactive
--
compound: CCC(C)CCCC(C)(C)O (configuration not stated)
outcome: inactive
--
compound: [Ca+2]
outcome: inactive
--
compound: OCCCCCO
outcome: inactive
--
compound: CC1(C)[C@@H]2CC[C@@]1(C)[C@H](O)C2
outcome: inactive
--
compound: Nc1cc(Cl)c(O)c(Cl)c1
outcome: inactive

Field: outcome. Fill in for each record below.
1. CCCCOCCOCCSC#N
2. ClCCCl
3. CCCC(=O)OCCC(C)CCC=C(C)C (configuration not stated)
4. CC(C)c1cccc(O)c1
5. O=C1C(c2[nH]c3ccc(S(=O)(=O)O)cc3c2O)=Nc2ccc(S(=O)(=O)O)cc21

Response:
inactive
inactive
inactive
inactive
inactive

====

- systemTested: Bile acid receptor (Homo sapiens)
- methodNotes: OT_FXR_FXRSRC1_0480: Odyssey Thera (OT) 8-hour HEK293T Protein-Complementation Assay for Farnesoid X receptor/SRC-1 Co-activator (AID 2283383)
Results filed as inconclusive are left out. Activity calls are given as the source filed them. The calls were made as follows: active = hit-call score of the fitted dose curve at least 0.9, where 1 is the maximum; inconclusive = response in the unintended direction; inactive = score below 0.9.
Form entry, call: pick from active, inactive

As a guide, the following entries are already answered.
molecule: CCC(=O)/C=C/C1C(C)=CCCC1(C)C (stereo not drawn)
discreteLabel: active
//
molecule: O=C1NC(=O)c2ccccc21
discreteLabel: inactive
//
molecule: c1ccc(CCCc2ccccn2)cc1
discreteLabel: active
//
molecule: C=CC(C)(O)CCC=C(C)CCC=C(C)C (stereo not drawn)
discreteLabel: active

Query: Each molecule tested received a call. Report the one for `O=Nc1ccc(Nc2ccccc2)cc1` .
Response: inactive

Query: Each molecule tested received a call. Report the one for `OCCN1CCNCC1` .
Response: inactive

Query: Each molecule tested received a call. Report the one for `CC(=O)C=CC1=C(C)CCCC1(C)C` .
Response: inactive

Query: Each molecule tested received a call. Report the one for `COc1c(Cl)c(Cl)c(Cl)c(Cl)c1Cl` .
Response: inactive
